Measured fluorescence ratio values are reported for all entries that follow.
Test: Cy5 fluorescence interference with SSB-bound oligo, artefact control for HCV NS3 helicase inhibitor project, biochemical, NIH Clinical Collection, E. coli SSB (AID 743268)
Response field accepts a number only; no unit should be typed.

Use these answered entries as a reference point.
CN1CCN2c3ncccc3Cc3ccccc3C2C1 (stereo not drawn) ... 0.98
COc1ccc(C[C@H](C)NC[C@@H](O)c2ccc(O)c(NC=O)c2)cc1 ... 1.02
CC1CC2C3CCC4=CC(=O)C=CC4(C)[C@@]3(Cl)C(O)CC2(C)C1(O)C(=O)CO (stereo partly drawn) ... 0.98
O=C(OC1C[C@@H]2CC3C[C@H](C1)N2CC3=O)c1c[nH]c2ccccc12 (stereo partly drawn) ... 1.02
C=CC1=C(C(=O)O)N2C(=O)[C@@H](NC(=O)C(=NO)c3csc(N)n3)[C@H]2SC1 ... 1

Measured fluorescence ratio of CCCCc1nc(Cl)c(CO)n1Cc1ccc(-c2ccccc2-c2nnn[nH]2)cc1 : 1.01

Measured fluorescence ratio of Nc1nc(Cl)nc2c1ncn2[C@H]1C[C@H](O)[C@@H](CO)O1 : 1.02

Measured fluorescence ratio of CCC[C@@H]1C[C@@H](C(=O)N[C@H]([C@@H](C)O)[C@H]2O[C@H](SC)[C@H](O)[C@@H](O)C2O)N(C)C1 (stereo partly drawn) : 0.98

----------
Measured normalised cell number values are reported for all entries that follow.
Test: differential killing of epithelial or mesenchymal cells, primary screen, imaging, PC-3E GFP, TEM4-18 mCherry, co-culture (AID 1345086);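 note: cells exposed to compound for 72 h before imaging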
Settings: imaging cell counts, measured here: mesenchymal TEM4-18 mCherry cell survival, at 1 µM
Response field accepts a number only; no unit should be typed.

Use these answered entries as a reference point.
COc1ccc2c(c1)O[C@H]1c3ccc(OC)cc3OC[C@@H]21 ... 1.07
CC(C)=CCC/C(C)=C/COc1ccc2ccc(=O)oc2c1 ... 0.99

Measured normalised cell number of COc1ccc2nc3cc(Cl)ccc3c(Nc3cc(CN4CCCC4)c(O)c(CN4CCCC4)c3)c2n1 : 0.98

Measured normalised cell number of CC(=O)[C@H]1CCC2C3C=CC4=CC(=O)CC[C@@]4(C)C3CC[C@@]21C (stereo not given in full) : 0.87

Measured normalised cell number of Cc1cc2nc3c(=O)[nH]c(=O)nc-3n(CC(O)C(O)C(O)CO)c2cc1C (stereo not given) : 1.1

Measured normalised cell number of COc1c(N2CC[C@@H](CN)C2)c(F)cc2c(=O)c(C(=O)O)cn(CCCN3C(=O)c4ccccc4C3=O)c12 : 1.1

----------
Test system: R275C/Slo1WT/beta2
Assay: modulators of BK channel variants, profiling panel, selectivity assay, cell-based, U2OS BacMam, thallium flux, beta subunits (AID 1259406);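 note: initial slope of Thallos dye fluorescence rise after thallium is added; log ratio against the mean of 0.3% DMSO vehicle wells on the same plate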
Settings: at 30 µM
Measured log fold change Tl+ flux values are reported for all entries that follow.
Response field accepts a number only; no unit should be typed.

Use these answered entries as a reference point.
Clc1cc(Cl)cc(Nc2ncnc(-n3cccc3)n2)c1 ... -0.0692
CCCCCCCCCCCCSC(=S)Nc1ccc(Br)c(C)c1 ... 0.0211
CSC(NCc1cccnc1)=C(C#N)S(=O)(=O)c1ccc(Cl)cc1 ... 0.0289

Measured log fold change Tl+ flux of O=C(OC1C[C@@H]2CC3C[C@H](C1)N2CC3=O)c1c[nH]c2ccccc12 (some centres undefined) : 0.011

----------
Experiment: growth inhibition of DIPG glioma cells, dose response, cell-based, SU-DIPG-IV, MIPE4.0, CellTiter-Glo, qHTS (AID 1347063);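 note: compound exposure lasted 48 hours before the viability readout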
Conditions: SU-DIPG-IV viability, CellTiter-Glo ATP luminescence
Records with an inconclusive call do not appear. Calls of active or inactive are those of the source. No cut-off is given here; in the data, nearly all actives have AC50 up to about 30 µM.
Classes to choose from: YES = active, NO = inactive

Below, 2 compounds whose answers are already recorded.
CCCCS(=N)(=O)CCC(N)C(=O)O (stereo not drawn) ... NO
C[C@H](NC(=O)c1sccc1OCc1ccc(Cl)cc1)c1ccccc1 ... YES

Now, please, on to the next compound.
Hi team, can someone confirm the assay call for CS(=O)c1ccc(-c2nc(-c3ccc(F)cc3)c(-c3ccncc3)[nH]2)cc1 (stereo not drawn) ?
YES

----------
Experiment: growth inhibition of DIPG glioma cells, dose response, cell-based, SU-DIPG-IV, MIPE4.0, CellTiter-Glo, qHTS (AID 1347063);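 note: compound exposure lasted 48 hours before the viability readout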
Details: SU-DIPG-IV viability, CellTiter-Glo ATP luminescence
Inconclusive results are not listed. Calls of active or inactive are those of the source. No cut-off is given here; in the data, nearly all actives have AC50 up to about 30 µM.
Classes to choose from: active, inactive

C[C@]12CCC3c4ccc(O)cc4CCC3C1CCC2=O (stereo not given in full) ... inactive
O=C(O)Cc1cccc(OCCCN(Cc2cccc(C(F)(F)F)c2Cl)CC(c2ccccc2)c2ccccc2)c1 ... active
Oc1cc(-c2nc(-c3ccccc3)[nH]c2-c2ccncc2)ccc1Cl ... active
CC(NCCc1ccc(O)cc1)C(O)c1ccc(O)cc1 (stereo not given) ... inactive
CC(=O)SCC(Cc1ccccc1)C(=O)NCC(=O)OCc1ccccc1 (stereo not given) ... active
C=C1/C(=C\C=C2/CCC[C@]3(C)[C@@H]([C@H](C)CCCC(C)(C)O)CC[C@@H]23)C[C@@H](O)C[C@@H]1O ... active
Oc1cc2c(cc1O)C1c3ccc(O)c(O)c3OCC1(O)C2 (stereo not given) ... inactive
COc1ccc(C2Sc3ccccc3N(CCN(C)C)C(=O)C2OC(C)=O)cc1 (stereo not given) ... inactive
COC(=O)/C=C/C(=O)OC ... active
O=c1[nH]c(=O)n(C2CCCO2)cc1F (stereo not given) ... inactive

Now, please, on to the next molecule.
Hi team, can someone confirm the assay call for CC(C)C[C@@H](C(=O)N[C@H](C(=O)OC1CCCC1)c1ccccc1)[C@H](O)C(=O)NO ?
active

----------
Assay: sensitizers of A549 cells to miR-34 induction, primary screen, imaging, A549 dox-inducible miR-34, nuclei and caspase counts (AID 1347080)
Conditions: A549 miR-34 inducible, Hoechst nuclei count, 48 h; stronger effect = lower value; cell number ratio, induced over uninduced
measured.property: fold change
Response field accepts a number only; no unit should be typed.

Oc1ccc2ccccc2c1 ... 0.874
C=C(C)C1CC=C(C)CC1 (configuration not stated) ... 0.884
CC(=O)Oc1cccc(C)c1 ... 0.912
CC(=O)OC1CCC2C3CCc4cc(O)ccc4C3CCC12C (configuration not stated) ... 0.907

Measured fold change of COC(=O)C1[C@H]2C[C@H]3c4[nH]c5ccccc5c4CCN3C[C@@H]2CC[C@@H]1O (some centres not stated) : 0.924

Measured fold change of NCCCC(N)C(=O)O (configuration not stated) : 0.906

Measured fold change of C[C@H](NC(=O)Cc1cc(F)cc(F)c1)C(=O)N[C@H](C(=O)OC(C)(C)C)c1ccccc1 : 0.918

----------
Test: viability rescue of complex I mutant cybrids, primary screen, cell-based, galactose medium, ATP luminescence (AID 1645843);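 note: positive z means more ATP and so rescue of galactose-driven cybrid death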
Details: complex I mutant cybrid cells, 72 h
Active and inactive are the calls of the source.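 Rule for the calls: active = z-score of at least 1.8 in each of two replicates, scored against plate mean and spread of sample wells; inactive = the rest.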
Classes to choose from: yes = active, no = inactive

CN1C(=O)C(Cc2c[nH]c3ccccc23)NC1=S (stereo not drawn) ... no
c1ccc(-c2ccccn2)nc1 ... no
O=C1C(Cl)=C(NCCN2CCOCC2)C(=O)c2ncccc21 ... no
CCCCS(=N)(=O)CCC(N)C(=O)O (stereo not drawn) ... no
C=CCc1ccc(O)c(-c2ccc(O)c(CC=C)c2)c1 ... no
CC1CNc2c(cccc2S(=O)(=O)N[C@@H](CCCN=C(N)N)C(=O)N2CC[C@@H](C)C[C@@H]2C(=O)O)C1 (stereo partly drawn) ... no
O=C(O)Cc1ccc([N+](=O)[O-])cc1 ... no
COc1nccc(-c2c(-c3ccc(F)cc3)ncn2C2CCC(O)CC2)n1 (stereo not drawn) ... no

Hi team, can someone confirm the assay call for O=C(O)C1CCCNC1 (stereo not drawn) ?
no

Hi team, can someone confirm the assay call for Cc1coc2c1C(=O)C(=O)c1c-2ccc2c1CCCC2(C)C ?
no

----------
Assay: differential killing of epithelial or mesenchymal cells, primary screen, imaging, PC-3E GFP, TEM4-18 mCherry, co-culture (AID 1345086);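 note: cells exposed to compound for 72 h before imaging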
Conditions: imaging cell counts, measured here: epithelial PC-3E GFP cell survival, at 1 µM
Decide using normalised cell number: a value greater than or equal to 1 is label 1, a smaller one is label 0.

Below, 10 compounds whose answers are already recorded.
C[C@@]1(N)CCCCCN(c2c(F)cc3c(=O)c(C(=O)O)cn(C4CC4)c3c2Cl)C1 ... label 0
CC(=O)Oc1ccc2c(c1C(C)C)CCC1C(C)(C)CCC[C@]21C (stereo partly drawn) ... label 1
NC(=O)C1CCCN1C(=O)C(Cc1cnc[nH]1)NC(=O)C1CCC(=O)N1 (stereo not drawn) ... label 0
C=C1OC(=O)[C@]2([C@H](C)C=CC(=O)[C@H]2O)[C@H]1O ... label 1
Cc1c(F)c(F)cc2c(=O)n(N)c(=O)n(C3CC3)c12 ... label 0
C[C@H]1O[C@H](O[C@H]2[C@H](O)[C@@H](O)[C@@H](O[C@H]3[C@H](O)[C@@H](O)C(O)O[C@@H]3CO)O[C@@H]2CO)[C@H](O)[C@@H](O)[C@@H]1N[C@H]1C=C(CO)[C@@H](O)[C@H](O)[C@H]1O (stereo partly drawn) ... label 1
O=C1Cc2cc(O)ccc2O1 ... label 0
COc1cccc2c1C(=O)OCc1cc(C)cc(O)c1O2 ... label 1
NCC[C@@H](O)C(=O)N[C@@H]1C[C@H](N)[C@@H](O[C@H]2O[C@H](CN)[C@@H](O)[C@H](O)[C@H]2O)[C@H](O)[C@H]1O[C@H]1O[C@H](CO)[C@@H](O)[C@H](N)C1O (stereo partly drawn) ... label 1
CC(CCC(=O)O)[C@H]1CCC2C3CC[C@@H]4C[C@H](O)CC[C@]4(C)C3CC[C@@]21C (stereo partly drawn) ... label 0

Would you say CC(C)[N+]1(C)C2CC[C@@H]1CC(OC(=O)C(CO)c1ccccc1)C2 (stereo partly drawn) shows normalised cell number at minimum 1?
label 1
